Assay: Identification of proteins required for the processing of the EWS-FLI1 nascent transcript;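 further: robust z of luciferase light less the median z of siRNAs with the same seed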
Conditions: TC32 Ewing sarcoma NR0B1-luc vs CMV-luc (EWS-FLI1 target promoter against control promoter), 48 h; screened at 20 nM (by protocol)
In all, about 59,000 sequences were measured (the read-out: median about -0.00055, lowest 2% from about -2 on). Only a selection was taken, and the lowest values are over-represented in it overall.
Strictly below -0.1 in seed-corrected z-score: met. Otherwise: not met.

AAUGAGGCAGGCAUGUUGG against PNMT :: not met
AUAGGGAACAGGAUAGCCC against C1orf74 :: not met
UGGGUAUACAGUCAUCAUC against SLC38A9 :: met
UCUGGAAUUUGGGUUGAUG against C1orf105 :: met
UUCUUAGACACGUAGUACC against KAT2B :: not met
UGCAUAAUAAGUCAUGUGG against DCN :: met

Reference source for all entries: PubChem BioAssay AID1159506
